Biological target: UniProt Q9NR97
Experiment: TLR8 inhibition reporter assay (HEK-Blue cells, SEAP reporter)
Details: HEK-Blue cells overexpressing human TLR8; stimulated with R848 15.9 μM; 22 hour incubation; SEAP readout
pIC50: −log10 of the molar value.
Assay endpoint: pIC50

The following molecules have reported results that may help.
COc1ccc(-c2cn3cc(-c4ccc(N5CCN(CC6CC6)CC5)cc4)cc(C)c3n2)cc1OC [Example 95]
< 4.30
COc1ccc(-c2cn3c(n2)CC[C@H](C2CCN(C4CC5CCC(C4)N5CC(C)C)CC2)C3)cc1OC (single isomer, unassigned) [Example 76]
< 4.60
CC(C)N1C2CCC1CC(N1CCC(c3cc(F)c4nc(-c5ccc(S(C)(=O)=O)cc5)cn4c3)CC1)C2 (single isomer, unassigned) [Example 68]
< 4.30
CC(C)CN1C2CCC1CC(N1CCC(c3cc(F)c4nc(-c5ccc(S(C)(=O)=O)cc5)cn4c3)CC1)C2 (single isomer, unassigned) [Example 114]
4.77
COc1ccc(-c2cn3cc(C4CCN(C5CC6CCC(C5)N6CC(C)C)CC4)cc(C)c3n2)cc1OC (single isomer, unassigned) [Example 18]
< 4.30

Then this molecule:
Which value of pIC50 has been reported for COc1ccc(-c2cn3c(n2)CC[C@H](C2CCN(C4CC5CCC(C4)N5C(C)C)CC2)C3)cc1OC (single isomer, unassigned) [Example 134] in the records?
< 4.30

* * *

Molecular target: human TLR7 (Homo sapiens, UniProt Q9NYK1)
Sequence (Q9NYK1 27-1049): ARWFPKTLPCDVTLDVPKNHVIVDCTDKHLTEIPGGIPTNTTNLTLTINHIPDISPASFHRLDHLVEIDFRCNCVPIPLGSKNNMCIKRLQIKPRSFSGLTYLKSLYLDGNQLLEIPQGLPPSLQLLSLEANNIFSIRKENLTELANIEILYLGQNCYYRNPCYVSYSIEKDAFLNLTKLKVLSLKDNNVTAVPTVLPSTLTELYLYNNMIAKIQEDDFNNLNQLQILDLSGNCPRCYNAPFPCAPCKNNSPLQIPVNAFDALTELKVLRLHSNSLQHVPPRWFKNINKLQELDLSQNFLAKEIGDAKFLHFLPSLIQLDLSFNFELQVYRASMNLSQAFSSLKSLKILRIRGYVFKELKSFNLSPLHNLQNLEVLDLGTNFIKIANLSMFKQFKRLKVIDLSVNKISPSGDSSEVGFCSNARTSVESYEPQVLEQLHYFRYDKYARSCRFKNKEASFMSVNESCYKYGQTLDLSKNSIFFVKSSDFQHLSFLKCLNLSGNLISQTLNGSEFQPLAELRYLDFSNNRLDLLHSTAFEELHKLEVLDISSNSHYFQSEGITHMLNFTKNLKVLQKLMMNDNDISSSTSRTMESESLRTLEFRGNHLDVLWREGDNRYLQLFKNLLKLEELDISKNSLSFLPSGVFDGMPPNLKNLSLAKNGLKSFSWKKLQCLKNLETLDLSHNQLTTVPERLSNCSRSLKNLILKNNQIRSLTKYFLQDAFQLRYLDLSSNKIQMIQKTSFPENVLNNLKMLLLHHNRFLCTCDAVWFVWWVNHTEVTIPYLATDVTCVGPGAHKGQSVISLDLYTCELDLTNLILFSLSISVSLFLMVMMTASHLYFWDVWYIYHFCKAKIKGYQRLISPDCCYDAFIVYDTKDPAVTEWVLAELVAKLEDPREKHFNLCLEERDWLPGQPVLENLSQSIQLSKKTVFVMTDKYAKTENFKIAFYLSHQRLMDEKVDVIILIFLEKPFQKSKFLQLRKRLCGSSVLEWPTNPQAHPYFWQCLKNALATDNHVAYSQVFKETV
Test: TLR7 inhibition reporter assay (HEK-Blue cells, SEAP reporter)
Conditions: HEK-Blue cells overexpressing human TLR7; stimulated with gardiquimod 7.5 μM; 22 hour incubation; SEAP readout
Below, each entry is listed alongside its reported IC50.
Please give a number only; it is taken to be in nM.

The following molecules have reported results that may help.
Cc1cc(-c2ccc(N3CCN(CC4CCC4)CC3)cc2)cn2cc(-c3ccc(S(C)(=O)=O)cc3)nc12 [Example 101]
18400
CC(C)CN1C2CCC1CC(N1CCC(c3cc(F)c4nc(-c5ccc(S(C)(=O)=O)cc5)cn4c3)CC1)C2 (single isomer, unassigned) [Example 114]
2000
Cc1cc(-c2ccc(N3CCN(CC4CC4)CC3)cc2)cn2cc(-c3ccc(S(C)(=O)=O)cc3)nc12 [Example 100]
13400
COc1ccc(-c2cn3cc(C4CCN(C5CC6CCC(C5)N6CC5CC5)CC4)cc(C)c3n2)cc1OC (single isomer, unassigned) [Example 20]
1500

Then this molecule:
Which value of IC50 has been reported for COc1ccc(-c2cn3c(n2)CCC(C2CCN(C4CC5(C4)CN(C4CCC4)C5)CC2)C3)cc1OC (racemic) [Example 48] in the records?
2000

* * *

Biological target: human TLR8 (Homo sapiens, UniProt Q9NR97)
Sequence (Q9NR97 27-1041): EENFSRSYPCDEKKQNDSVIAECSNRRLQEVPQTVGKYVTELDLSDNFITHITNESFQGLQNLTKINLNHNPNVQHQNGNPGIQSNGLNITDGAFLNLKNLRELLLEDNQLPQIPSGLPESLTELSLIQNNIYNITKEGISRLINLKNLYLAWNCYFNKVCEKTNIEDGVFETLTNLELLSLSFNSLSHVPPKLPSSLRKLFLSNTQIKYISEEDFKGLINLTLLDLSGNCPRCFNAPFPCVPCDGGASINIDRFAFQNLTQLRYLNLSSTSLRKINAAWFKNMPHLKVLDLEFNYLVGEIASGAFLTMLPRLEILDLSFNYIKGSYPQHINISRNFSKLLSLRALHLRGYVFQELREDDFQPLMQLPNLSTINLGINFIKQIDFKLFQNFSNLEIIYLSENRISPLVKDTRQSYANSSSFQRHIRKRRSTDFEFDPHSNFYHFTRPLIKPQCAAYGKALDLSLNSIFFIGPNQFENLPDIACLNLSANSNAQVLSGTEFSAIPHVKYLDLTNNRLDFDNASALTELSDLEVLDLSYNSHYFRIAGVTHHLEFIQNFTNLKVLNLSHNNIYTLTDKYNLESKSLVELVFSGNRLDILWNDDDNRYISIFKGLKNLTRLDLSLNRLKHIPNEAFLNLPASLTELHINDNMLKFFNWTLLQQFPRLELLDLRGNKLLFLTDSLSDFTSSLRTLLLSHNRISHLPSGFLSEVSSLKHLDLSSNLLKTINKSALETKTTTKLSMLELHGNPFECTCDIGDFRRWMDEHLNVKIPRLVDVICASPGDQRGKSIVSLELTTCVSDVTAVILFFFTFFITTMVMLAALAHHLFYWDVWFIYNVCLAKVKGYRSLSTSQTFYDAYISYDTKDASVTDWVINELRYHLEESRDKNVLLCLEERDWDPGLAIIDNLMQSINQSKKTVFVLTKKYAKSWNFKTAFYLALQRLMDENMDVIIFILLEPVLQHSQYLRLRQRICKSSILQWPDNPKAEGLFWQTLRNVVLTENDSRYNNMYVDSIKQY
Assay: TLR8 inhibition reporter assay (HEK-Blue cells, SEAP reporter)
Conditions: HEK-Blue cells overexpressing human TLR8; stimulated with R848 15.9 μM; 22 hour incubation; SEAP readout
Assay endpoint: IC50

The following compounds have reported results that may help.
COc1ccc(-c2cn3c(n2)CC[C@H](C2CCN(C4CC5CCC(C4)N5CC(C)C)CC2)C3)cc1OC (single isomer, unassigned) [Example 75]
> 25 µM
COc1ccc(-c2cn3cc(C4CCN(C5CC6(C5)CN(C5CCC5)C6)CC4)cc(C)c3n2)cc1OC
> 50 µM
COc1ccc(-c2cn3cc(-c4ccc(N5CCN(C(C)C)CC5)cc4)cc(C)c3n2)cc1OC
15 µM

Which value of IC50 has been reported for CS(=O)(=O)c1ccc(-c2cn3cc(C4CCN(C5CCN(CC6CC6)CC5)CC4)cc(F)c3n2)cc1 in the records?
> 50 µM

* * *

Target: human TLR9 (Homo sapiens, UniProt Q9NR96)
Sequence (Q9NR96 26-1032): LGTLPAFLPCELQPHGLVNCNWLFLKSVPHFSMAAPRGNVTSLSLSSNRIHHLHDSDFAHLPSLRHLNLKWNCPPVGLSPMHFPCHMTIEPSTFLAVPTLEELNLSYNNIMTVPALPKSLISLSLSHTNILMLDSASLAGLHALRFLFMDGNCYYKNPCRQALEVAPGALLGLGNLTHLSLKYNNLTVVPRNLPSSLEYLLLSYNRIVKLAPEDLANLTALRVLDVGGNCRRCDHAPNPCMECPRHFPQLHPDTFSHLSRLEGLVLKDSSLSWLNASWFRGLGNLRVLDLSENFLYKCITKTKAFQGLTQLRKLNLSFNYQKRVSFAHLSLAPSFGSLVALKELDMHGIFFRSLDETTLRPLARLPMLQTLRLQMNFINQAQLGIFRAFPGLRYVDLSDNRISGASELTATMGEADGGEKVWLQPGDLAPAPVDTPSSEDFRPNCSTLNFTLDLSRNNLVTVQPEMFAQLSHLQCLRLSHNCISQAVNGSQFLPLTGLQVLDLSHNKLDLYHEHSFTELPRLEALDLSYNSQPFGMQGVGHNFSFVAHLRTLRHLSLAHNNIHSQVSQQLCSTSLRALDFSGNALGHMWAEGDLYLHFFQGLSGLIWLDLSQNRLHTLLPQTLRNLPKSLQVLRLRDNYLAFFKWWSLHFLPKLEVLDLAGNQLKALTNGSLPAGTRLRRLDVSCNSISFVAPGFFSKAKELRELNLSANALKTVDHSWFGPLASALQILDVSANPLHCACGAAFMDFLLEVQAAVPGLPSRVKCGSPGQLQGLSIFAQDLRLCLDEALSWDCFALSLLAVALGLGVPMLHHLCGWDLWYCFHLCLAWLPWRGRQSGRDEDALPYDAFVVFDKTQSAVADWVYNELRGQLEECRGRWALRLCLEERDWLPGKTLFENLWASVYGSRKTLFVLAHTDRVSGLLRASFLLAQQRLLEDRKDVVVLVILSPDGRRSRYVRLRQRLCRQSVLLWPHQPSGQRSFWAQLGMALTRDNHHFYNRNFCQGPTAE
Assay: TLR9 inhibition reporter assay (HEK-Blue cells, SEAP reporter)
Details: HEK-Blue cells overexpressing human TLR9; stimulated with ODN2006 5 nM; 22 hour incubation; SEAP readout
pIC50: −log10 of the molar value.
# if value of pIC50 reaches 7, tag True; if it stays below, tag False

// known answers, use as guide
COc1ccc(-c2cn3c(n2)CCC(C2CCN(C4CCN(CC5CC5)CC4)CC2)C3)cc1OC (single isomer, unassigned) [Example 57]
True
CC(C)CN1CCCC(N2CCC(c3cc(F)c4nc(-c5ccc(S(C)(=O)=O)cc5)cn4c3)CC2)CC1 (single isomer, unassigned) [Example 125]
True
CS(=O)(=O)c1ccc(-c2cn3cc(C4CCN(C5CCCN(CC6CC6)CC5)CC4)cc(F)c3n2)cc1 (single isomer, unassigned) [Example 127]
True
CC(C)CN1CCC(N2CCC(c3ccn4cc(-c5ccc(S(C)(=O)=O)cc5)nc4c3F)CC2)CC1
True

Evaluate Cc1cc(C2CCN(C3CC4CCC(C3)N4C3CCC3)CC2)cn2cc(-c3ccc(S(C)(=O)=O)cc3)nc12 (single isomer, unassigned) [Example 84] : pIC50 at minimum 7?
True

Evaluate CS(=O)(=O)c1ccc(-c2cn3c(n2)CC[C@H](C2CCN(C4CC5CCC(C4)N5CC4CC4)CC2)C3)cc1 (single isomer, unassigned) [Example 139] : pIC50 at minimum 7?
True

Evaluate Cc1cc(C2CCN(C3CCN(CC(C)C)CC3)CC2)cn2nc(-c3ccc(S(C)(=O)=O)cc3)nc12 : pIC50 at minimum 7?
True

Evaluate COc1ccc(-c2cn3c(n2)CCC(C2CCN(C4CCN(CC(C)C)CC4)CC2)C3)cc1OC (single isomer, unassigned) [Example 33] : pIC50 at minimum 7?
True

Evaluate COc1ccc(-c2cn3c(n2)CCC(C2CCN(C4CCN(C(=O)C5CC5)CC4)CC2)C3)cc1OC (single isomer, unassigned) [Example 44] : pIC50 at minimum 7?
False

Evaluate COc1ccc(-c2nc3n(n2)CC(C2CCC(N4CCN(C(C)C)CC4)CC2)CC3C)cc1OC (centres unmarked) : pIC50 at minimum 7?
False

Evaluate Cc1cc(C2CC3CCC(C2)N3C2CCN(C(C)C)CC2)cn2nc(-c3ccc(S(C)(=O)=O)cc3)nc12 (centres unmarked) : pIC50 at minimum 7?
True

Evaluate COc1ccc(-c2nc3c(C)cc(C4CC5CCC(C4)N5C4CCN(C(C)C)CC4)cn3n2)cc1OC (centres unmarked) : pIC50 at minimum 7?
False

Evaluate COc1ccc(-c2nc3ccc(-c4ccc(N5CC6CCC(C5)N6C(C)C)cc4)cn3n2)cc1OC : pIC50 at minimum 7?
False

Evaluate COc1ccc(-c2cn3cc(C4CCN(C5CC6CCC(C5)N6CC(C)C)CC4)cc(C)c3n2)cc1OC (single isomer, unassigned) [Example 18] : pIC50 at minimum 7?
True

Evaluate COc1ccc(-c2cn3cc(-c4ccc(N5CCN(C6CCOCC6)CC5)cc4)cc(C)c3n2)cc1OC : pIC50 at minimum 7?
False

Evaluate COc1ccc(-c2cn3cc(C4CCN(C5CCN(CC(C)C)CC5)CC4)cc(C)c3n2)cc1OC : pIC50 at minimum 7?
True

Evaluate Cc1cc(-c2ccc(N3CCN(C(C)C)CC3)cc2)cn2cc(-c3ccc(S(C)(=O)=O)cc3)nc12 : pIC50 at minimum 7?
False

Evaluate COc1ccc(-c2cn3cc(C4C[C@H]5CC[C@@H](C4)N5C4CCN(CC(C)C)CC4)cc(C)c3n2)cc1OC (mixture of isomers) : pIC50 at minimum 7?
True

Evaluate COc1ccc(-c2cn3c(n2)CCC(C2CCN(C4CCN(C(=O)C5CC5)CC4)CC2)C3)cc1OC (single isomer, unassigned) [Example 43] : pIC50 at minimum 7?
False

Evaluate CC(C)CN1C2CCC1CC(N1CCC([C@H]3CCc4nc(-c5ccc(S(C)(=O)=O)cc5)cn4C3)CC1)C2 (single isomer, unassigned) [Example 80] : pIC50 at minimum 7?
True

Evaluate Cc1cc(-c2ccc(N3CCN(CC(C)C)CC3)cc2)cn2cc(-c3ccc(S(C)(=O)=O)cc3)nc12 : pIC50 at minimum 7?
False

* * *

Below, each entry is listed alongside its reported pIC50.
Biological target: human TLR7 (Homo sapiens, UniProt Q9NYK1)
Assay: TLR7 inhibition reporter assay (HEK-Blue cells, SEAP reporter)
Assay type: cell-based
Settings: HEK-Blue cells overexpressing human TLR7; stimulated with gardiquimod 7.5 μM; 22 hour incubation; SEAP readout
Quick note: pIC50 values are minus log10 of concentrations in mol/L.

The following compounds have reported results that may help.
CS(=O)(=O)c1ccc(-c2cn3cc(C4CCN(C5CCN(CC6CC6)CC5)CC4)cc(F)c3n2)cc1
5.89
COc1ccc(-c2cn3c(n2)CCC(C2CCN(C4CCN(CC(C)C)CC4)CC2)C3)cc1OC (single isomer, unassigned) [Example 32]
5.55
COc1ccc(-c2cn3c(n2)CCC(C2CCN(C4CC5(C4)CN(C4CCC4)C5)CC2)C3)cc1OC (single isomer, unassigned) [Example 50]
5.28
COc1ccc(-c2cn3cc(C4C[C@H]5CC[C@@H](C4)N5C4CCN(C5CC5)CC4)cc(C)c3n2)cc1OC (mixture of isomers)
5.54

Then this compound:
Given the entry Cc1cc(-c2ccc(N3CCN(C4CCC4)CC3)cc2)cn2cc(-c3ccc(S(C)(=O)=O)cc3)nc12 , what pIC50 was observed with human TLR7 (Homo sapiens, UniProt Q9NYK1)?
5.20
